- experimental system: T1, ZIKV (prM80E) with a C-terminal myc-myc-hexahistidine tag (Zika virus, UniProt A0A024B7W1 104-694)
- T1 construct: also called ZIKV (prM80E)-mmH; ZIKV-mmH
- measurement notes: SPR, mAb captured, 37C, pH 6.0 chase
readout: koff (s⁻¹)
Please give a number only; it is taken to be in s⁻¹.

In: State the recorded koff for this entry: H4H25710N (antibody, V domains shown) VH: EVQLLESGGGLVQPGGSLRLSCAASGFTVSNNYMSWVRQAPGKGLEWVSVIYSGGRTNYGDSVKGRFTISRDNSKNTLYLQMNSLRAEDTAVYYCARENYDFWSGDPYGWDVWGQGTTVTVSS VL: DIQMTQSPSSLSASVGDRVTITCRASQDISNYLAWFQQKPGKAPKSLIYGASSLQRGVPSKFRGSGSGTDFTLTISSLQPEDFASYYCQQYNSYPYTFGQGTKLEIK
Out: 0.13

In: State the recorded koff for this entry: H4H25592P (antibody, V domains shown) VH: QVQLVESGGGVVQPGRSLRLSCAASGFTFSYSGMHWVRQAPGKGLEWVAVISYDGSNKYYADSVKGRFTISRDNSNNILYLQMNSLRAEDTAVYYCAKDWGGRFDPWGQGTLVTVSS VL: DIQMTQSPSSLSASVGDRVTITCRASQGISSYLAWYQQIPGKVPKLLIYAASTLHSGVPSRFSGSGSGTDFTLTISSLQPADVATYYCQKYNSAPLTFGGGTKVEIK
Out: 0.00503

In: State the recorded koff for this entry: H4H25602P (antibody, V domains shown) VH: EVQLVESGGGLVQPGGSLRLSCAASGFTVSSNYMSWVRQAPGSGLEWVSVIYSGGITHYVDSVKGRFTISRHNSKNTLYLQMNSLRAEDTAMYYCARERYSGITGNPYGFDIWGQGTMVTVSS VL: DIQLTQSPSFLSASVGDRVTITCWASQDISSYLAWYQQKPGIAPKLLIYAASTLQSGVPSRFSGSGSGTEFTLTISSLQPEDFATYYCQQLNIYPFTFGPGTKVDIK
Out: 0.0122

In: State the recorded koff for this entry: H4H25591P (antibody, V domains shown) VH: QVQLVESGGGVVQPGRSLRLSCAASGFTFSYSGMHWVRQAPGKGLEWVAVISYDGINKYYADSVKGRFTISRDNSKNTLYLQMNSLRPEDTAVYYCAKDRGGRFDPWGQGTLVTVSS VL: DIQMTQSPSSLSASVGDRVTITCRASQGISNYLAWYQQKPGKVPNLLIYGASTLHSGVPSRFSGSGSGTDFTLTISSLQPADVATYYCQKYNSAPLTFGGGTKVEIK
Out: 0.0136
